biological target: DNA polymerase beta (Homo sapiens); test: qHTS Assay for Inhibitors of DNA Polymerase Beta; details: Pol beta primer extension/strand displacement, fluorescence kinetic; series mostly up to 114 µM
Among all 340,000 compounds or so, about 4,500 (1.3%) were called active. Inconclusive results (about 5%) are left out. Calls follow the shape of the dose curve; as a rule, active = well fitted inhibition curve with a large enough effect; inconclusive = small, poorly fitted or top-dose-only effect, or another doubt; inactive = no such curve, though single readings can be large or run the other way. Only a selection was taken, and actives are over-represented in it overall.
Possible outcomes: active, inactive

| molecule | qualitative_label |
| --- | --- |
| CCC1=C/C(=C\c2ccc3c(c2)OCO3)C(=O)S1 | active |
| COc1ccc(N2CCN(C(=O)C3CCN(S(=O)(=O)c4ccc(C)cc4)CC3)CC2)cc1 | inactive |
| COC(=O)C1=C(C)N(c2ccc(Br)cc2)C(=O)/C1=C\c1ccco1 | inactive |
| O=[N+]([O-])c1cc(-c2nc(-c3ccccc3)no2)ccc1NCc1ccco1 | inactive |
| COc1ccc(N2CCN(S(=O)(=O)c3ccc(-c4coc(C)n4)cc3)CC2)cc1 | active |
| CCCNC(=S)N1CCCC(c2nc3ccccc3[nH]2)C1 (stereo unspecified) | inactive |
| Cc1ccc(NC(=O)CSc2nc(CSc3ccc(C)cc3)cc(=O)[nH]2)cc1 | inactive |
| CCSc1ncnc2c(C#N)c3n(c12)CCCCC3 | inactive |
| CCC(Sc1nnc(-c2ccc(OC)cc2)c(-c2ccc(OC)cc2)n1)C(=O)NC1CCCCC1 (stereo unspecified) | inactive |
| O=C(CSc1ccc(-c2ccco2)nn1)Nc1cccc(F)c1 | inactive |
| CCSC1=C(C#N)C(=O)n2c1cc1c2CCCC1 | active |
| COc1ccc(CNC(=O)CSCc2nc(-c3ccccc3F)oc2C)cc1 | inactive |
| O=C(Cc1ccc(F)cc1)N/N=C/c1ccc2c(c1)OCO2 | inactive |
| Cc1ccc(S(=O)(=O)N2CCCc3cc(NS(=O)(=O)c4cc(C)ccc4C)ccc32)cc1 | inactive |
| Cc1cc(C)c(-c2n[nH]c3c2C(c2ccccc2F)N(CCO)C3=O)c(O)c1 (stereo unspecified) | inactive |
| COc1ccc(NC(=O)CSc2nc(NS(=O)(=O)c3ccc(C)cc3)cc(=O)[nH]2)cc1 | active |
| O=C(Nc1nnc(C2CC(=O)N(c3ccc(Cl)cc3)C2)s1)c1ccco1 (stereo unspecified) | inactive |
| COc1ccc(N2CCN(Cc3nc4c(c(=O)[nH]c(=O)n4C)n3Cc3ccc(Cl)cc3)CC2)cc1 | inactive |
| Cc1cc(C)c(OCC(=O)N/N=C/c2ccco2)c(C)c1 | inactive |
| Cc1ccc(-n2ncc3c(NCCCn4ccnc4)ncnc32)cc1Cl | inactive |
| CC(C)(C)OC(=O)N1CCC(c2c(C(=O)Nc3ccc4c(c3)OCO4)cnn2-c2ccccc2)CC1 | inactive |
| CCCCOC(=O)CSc1ncnc2sc3c(c12)CCC(C)C3 (stereo unspecified) | inactive |
| COC(=O)c1ccccc1NC(=O)C1CCN(S(=O)(=O)c2cc(OC)ccc2OC)CC1 | inactive |
| Cc1c(Cl)cccc1NC(=O)N1CCN(C(=O)c2nsc3ccccc23)CC1 | inactive |
| CCN1/C(=C/c2ccc3ccc(C)cc3[n+]2CC)Sc2ccccc21 | active |
| O=[N+]([O-])C(=c1ccc2c(c1)N1C3=C(CCCC3)CC3CCCCC31N=2)[N+](=O)[O-] (stereo unspecified) | active |

----------
target: DNA polymerase beta (Homo sapiens) (UniProt P06746); assay: qHTS Assay for Inhibitors of DNA Polymerase Beta; details: Pol beta primer extension/strand displacement, fluorescence kinetic; series mostly up to 114 µM
Screen size: about 340,000 compounds; about 4,500 (1.3%) were called active. Not shown: some 5% with an inconclusive outcome. The call rests on the fitted dose curve; in most records, active means well fitted inhibition curve with a large enough effect; inconclusive means small, poorly fitted or top-dose-only effect, or another doubt; inactive means no such curve, though single readings can be large or run the other way. This is one part of a sample in which actives are shown more often than they occur.
Possible outcomes: active, inactive

| molecule | target_or_system | qualitative_label |
| --- | --- | --- |
| COc1cccc(NC(=O)C(=O)NCC(c2ccc3c(c2)OCO3)N2CCN(C)CC2)c1 (stereo unspecified) | DNA polymerase beta (Homo sapiens) (UniProt P06746) | inactive |
| CCc1ccc(NC(=O)Cn2nnc(C(=O)NCc3ccc4c(c3)OCO4)c2N)cc1 | DNA polymerase beta (Homo sapiens) (UniProt P06746) | inactive |
| COCCN1C=C2C(=O)C(C)(OC(=O)C3CCCC3)C(=O)C=C2C=C1c1ccsc1 (stereo unspecified) | DNA polymerase beta (Homo sapiens) (UniProt P06746) | inactive |
| Cc1cc(C)nc(N2CCN(c3ncnc4c3oc3ccccc34)CC2)n1 | DNA polymerase beta (Homo sapiens) (UniProt P06746) | inactive |
| CCOc1ccc(N(CC)S(=O)(=O)N2CCCC(C(=O)Nc3ccc(C(C)=O)cc3)C2)cc1 (stereo unspecified) | DNA polymerase beta (Homo sapiens) (UniProt P06746) | inactive |
| Cc1nnc(NC(=O)/C=C/c2ccco2)s1 | DNA polymerase beta (Homo sapiens) (UniProt P06746) | active |
| CCC(CC)c1nnc(NC(=O)/C=C/c2ccco2)s1 | DNA polymerase beta (Homo sapiens) (UniProt P06746) | inactive |
| Cn1ccc(=Nc2ccc(NC(=O)c3ccc(N=c4ccn(C)c5ccc([N+](=O)[O-])cc45)cc3)cc2)cc1 | DNA polymerase beta (Homo sapiens) (UniProt P06746) | active |
| COC(=O)c1cnn(-c2ccc(C(=O)Nc3ccc(OC(F)(F)F)cc3)cc2)c1N | DNA polymerase beta (Homo sapiens) (UniProt P06746) | inactive |
| c1ccc2cc3c(NCCN4CCOCC4)ccnc3cc2c1 | DNA polymerase beta (Homo sapiens) (UniProt P06746) | active |
| CCOc1ccc(-n2c(C)nc3c(cnn3-c3ccc(C)cc3)c2=O)cc1 | DNA polymerase beta (Homo sapiens) (UniProt P06746) | inactive |
| CC(C)c1nc2oc3c(N4CCN(C)CC4)ncnc3c2c2c1CCC2 | DNA polymerase beta (Homo sapiens) (UniProt P06746) | active |
| CCOc1nc(NCCN2CCOCC2)nc(Nc2ccc(C)cc2)n1 | DNA polymerase beta (Homo sapiens) (UniProt P06746) | inactive |
| CCC(=O)Nc1ccc2nn(-c3ccc(F)cc3)nc2c1 | DNA polymerase beta (Homo sapiens) (UniProt P06746) | inactive |
| COC(=O)CCCC1=CC2=CC(=O)C(C)(OC(=O)c3cccs3)C(=O)C2=CN1CC(C)C (stereo unspecified) | DNA polymerase beta (Homo sapiens) (UniProt P06746) | inactive |
| Cc1ccc(CCNC(=O)c2nnc(Cc3cccc(F)c3)o2)cc1 | DNA polymerase beta (Homo sapiens) (UniProt P06746) | inactive |

----------
molecular target: DNA polymerase beta (Homo sapiens); assay: qHTS Assay for Inhibitors of DNA Polymerase Beta; conditions: Pol beta primer extension/strand displacement, fluorescence kinetic; series mostly up to 114 µM
Out of some 340,000 compounds screened, about 4,500 (1.3%) were called active. Roughly 5% stayed inconclusive and do not appear here. Calls follow the shape of the dose curve; as a rule, active = well fitted inhibition curve with a large enough effect; inconclusive = small, poorly fitted or top-dose-only effect, or another doubt; inactive = no such curve, though single readings can be large or run the other way. The full list was thinned out, with actives kept by preference.
Possible outcomes: active, inactive

| molecule | target_or_system | qualitative_label |
| --- | --- | --- |
| CCOC(=O)C(Cc1ccccc1)NC(=O)CCC(=O)c1ccc(OC)cc1 (stereo not given) | DNA polymerase beta (Homo sapiens) | inactive |
| CCc1ccccc1NS(=O)(=O)c1ccc2nc(-c3ccccc3)[nH]c2c1 | DNA polymerase beta (Homo sapiens) | inactive |
| COc1ccc(-c2nc(Cn3c(=O)cc(C)c4c(C)nn(-c5ccccc5)c43)c(C)o2)c(OC)c1 | DNA polymerase beta (Homo sapiens) | inactive |
| COc1cc([C@H](Cc2ccccc2)NC(C)=O)oc(=O)c1 | DNA polymerase beta (Homo sapiens) | active |
| CCOC(=O)CCc1c(C)c2ccc(OCc3nn[nH]n3)c(C)c2oc1=O | DNA polymerase beta (Homo sapiens) | inactive |

----------
molecular target: DNA polymerase beta (Homo sapiens) (UniProt P06746); experiment: qHTS Assay for Inhibitors of DNA Polymerase Beta; conditions: Pol beta primer extension/strand displacement, fluorescence kinetic; series mostly up to 114 µM
Hit rate of the full screen: of about 340,000 compounds, about 4,500 (1.3%) were called active. Not shown: some 5% with an inconclusive outcome. The call rests on the fitted dose curve; in most records, active means well fitted inhibition curve with a large enough effect; inconclusive means small, poorly fitted or top-dose-only effect, or another doubt; inactive means no such curve, though single readings can be large or run the other way. This excerpt belongs to a sample that is enriched for actives.
Possible outcomes: y = active, n = inactive

| sample_smiles | qualitative_label |
| --- | --- |
| O=C(NCc1ccccn1)c1ccc2nc(-c3ccco3)c(-c3ccco3)nc2c1 | y |
| COc1ccc(-c2nc3ccc(C(=O)NCc4ccc(C)cc4)cc3nc2-c2ccc(OC)cc2)cc1 | n |
| CCSc1nnc(NC(=O)c2cc(=O)c3cc(C)c(C)cc3o2)s1 | n |

----------
biological target: DNA polymerase beta (Homo sapiens) (UniProt P06746); experiment: qHTS Assay for Inhibitors of DNA Polymerase Beta; conditions: Pol beta primer extension/strand displacement, fluorescence kinetic; series mostly up to 114 µM
The whole screen tested about 340,000 compounds, of which about 4,500 (1.3%) were called active. Not shown: some 5% with an inconclusive outcome. The call rests on the fitted dose curve; in most records, active means well fitted inhibition curve with a large enough effect; inconclusive means small, poorly fitted or top-dose-only effect, or another doubt; inactive means no such curve, though single readings can be large or run the other way. This is one part of a sample in which actives are shown more often than they occur.
Possible outcomes: true (active), false (inactive)

| compound | qualitative_label |
| --- | --- |
| O=C(NCCc1csc(-c2ccc(C(F)(F)F)cc2)n1)C(=O)Nc1ccc(F)c(Cl)c1 | false |
| CC(=O)c1cccc(Nc2ccc3cc(S(=O)(=O)N4CCC(C)CC4)ccc3n2)c1 | false |
| CCC(C)(C)n1nnnc1C(c1ccc(OC)c(OC)c1)N1CCN(C(=O)c2ccco2)CC1 (stereo unspecified) | false |
| Cc1ccc(CN2CCc3nc(N4CCN(C)CC4)ncc3C2)cc1 | false |
| Cc1nn(CC(=O)N/N=C/c2ccc(F)cc2)c(C)c1[N+](=O)[O-] | false |
| COc1ccc(NC(=O)NC(C)c2c(-n3cccc3)sc(C)c2C)cc1OC (stereo unspecified) | false |
| Cc1c(C)c2ccc(OCC(=O)N3CCC(C(=O)O)CC3)c(C)c2oc1=O | false |
| O=c1cc2nc(-c3ccccc3)nc(SCCOc3ccc(Cl)cc3)n2[nH]1 | true |
| Cc1c(CC(=O)N2CCN(C(=O)C3COc4ccccc4O3)CC2)c(=O)oc2c(O)c(O)ccc12 (stereo unspecified) | true |
| O=C(OCN1C(=O)c2ccccc2C1=O)/C(=C\c1ccco1)NC(=O)c1ccccc1 | false |
| CCCCn1c(CNC(=O)C23CC4CC(CC(C4)C2)C3)nnc1SCC(=O)Nc1ccc(C)cc1 | false |
| CCOc1ccc(-n2c(O)c(/C=N/c3ccnn3Cc3ccncc3)c3ccccc3c2=O)cc1 | false |
| O=C1c2ccccc2NC(c2ccc(-c3cccc(Cl)c3)o2)N1O (stereo unspecified) | false |
| Cc1ccccc1NC(=O)CN1C(=O)N/C(=C\c2cccn2-c2cccc(C(=O)O)c2)C1=O | true |
| COc1ccc(/C=C/c2nc(C#N)c(NCc3ccc(F)cc3)o2)cc1OC | false |
| N#Cc1c(-c2ccccc2)nc(SCc2cccc(C(F)(F)F)c2)[nH]c1=O | true |
| COc1ccc(OCC(=O)NNC(=O)c2ccc(-c3ccccc3)cc2)cc1 | true |
| N#Cc1c(-c2ccc(F)cc2)nc(-c2ccccc2)[nH]c1=O | false |
| Cc1ccc(-c2nc3cccc(C)n3c2Nc2ccc3c(c2)OCCO3)cc1 | false |
| CC(=O)c1ccc(NC(=O)CSc2nc(-c3ccccc3F)nc3c2c(=O)n(C)c(=O)n3C)cc1 | false |
| Cc1ccc(NC(=O)c2ccc3[nH]c(C)cc(=O)c3c2)c(C)c1 | false |
